Source of measurements: patent US20130109682A1

- target.system: PIM1 (Homo sapiens)
- Sequence (P11309 whole entry): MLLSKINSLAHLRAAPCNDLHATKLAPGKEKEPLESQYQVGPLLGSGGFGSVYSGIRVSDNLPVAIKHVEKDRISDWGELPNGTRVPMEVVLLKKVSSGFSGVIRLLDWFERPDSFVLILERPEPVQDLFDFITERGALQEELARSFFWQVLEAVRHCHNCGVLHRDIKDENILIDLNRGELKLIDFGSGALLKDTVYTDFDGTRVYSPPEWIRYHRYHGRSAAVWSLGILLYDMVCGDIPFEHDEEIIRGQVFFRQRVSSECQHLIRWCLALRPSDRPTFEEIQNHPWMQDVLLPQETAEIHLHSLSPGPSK
- run.description: KinaseGlo Pim1 ATP depletion assay
- Type: biochemical
Recorded pIC50 by entry
FYI, pIC50 means -log10 of a concentration in mol per litre.

- compound: "Nc1cc(F)c(-c2ccccc2F)nc1C(=O)Nc1cnccc1C1=CC(=O)[C@H](O)[C@@H](CCl)O1 [Example 151]"
  pIC50: 8.28
- compound: "O=C(Nc1cnccc1[C@H]1C[C@@H](O)CCO1)c1csc(-c2c(F)cccc2F)n1 [Example 131]"
  pIC50: 8.52
- compound: "C[C@H]1O[C@@H](c2ccncc2NC(=O)c2csc(-c3c(F)cccc3F)n2)C[C@@H](N)[C@@H]1O [Example 114]"
  pIC50: 8.40
- compound: "CC1C(c2ccncc2NC(=O)c2ccc(F)c(-c3c(F)cccc3F)n2)OC(C)[C@H](O)C1O (stereo in doubt) [Example 66]"
  pIC50: 9.00
- compound: "CC[C@H]1O[C@@H](c2ccncc2NC(=O)c2ccc(F)c(-c3c(F)ccc(C#N)c3F)n2)C[C@@H](O)[C@@H]1O [Example 2]"
  pIC50: 7.38

Q: Find pIC50 (PIM1 (Homo sapiens)) for the entry C[C@@H]1OC(c2ccncc2NC(=O)c2nc(-c3c(F)cccc3F)ncc2N)=C[C@H](O)[C@@]1(C)O [Example 10]
Result: 7.73

Q: Find pIC50 (PIM1 (Homo sapiens)) for the entry C[C@H]1C[C@@H](N)C[C@@H](c2ccncc2NC(=O)c2ccc(F)c(-c3c(F)cccc3F)n2)O1 [Example 124]
Result: 9.00
